Test system: Vero-E6
run.description: primary screen, phospholipidosis by LipidTOX staining; higher = more effect of the substance
condition.notes: 10 µM
Among all 5,400 compounds or so, about 190 (3.5%) showed an effect of 50% or more. The list comes from a sample in which strong results are over-represented; it also holds close analogues and randomly drawn compounds.
result_ITMP values by entry
# value in %; strip the unit string

Use these answered entries as a reference point.
molecule: C=C[C@@]1(C)CC(=O)[C@]2(O)[C@@]3(C)[C@@H](O)CCC(C)(C)[C@@H]3[C@H](O)[C@H](OC(C)=O)[C@@]2(C)O1
readout.label: result_ITMP
reading.unit: %
data.value: -2.23
--
molecule: COc1ccc2c(C)nc(Nc3nc(=O)c(C)c(C)[nH]3)nc2c1
readout.label: result_ITMP
reading.unit: %
data.value: 0.3
--
molecule: CCN(CCO)CCCOc1ccc2c(Nc3cc(CC(=O)Nc4cccc(F)c4)n[nH]3)ncnc2c1
readout.label: result_ITMP
reading.unit: %
data.value: -2.36
--
molecule: c1ccc(C2CN3CCSC3=N2)cc1 (stereo not shown)
readout.label: result_ITMP
reading.unit: %
data.value: -7.98
--
molecule: CS(=O)(=O)c1ccc(-c2cn3ccccc3n2)cc1
readout.label: result_ITMP
reading.unit: %
data.value: -2.12

Kindly note: Vero-E6, CN(C)CC/C=C1\c2ccccc2Sc2ccc(Cl)cc21 , result_ITMP value reported: 51.1

Kindly note: Vero-E6, CN(C)CC/C=C1\c2ccccc2CSc2ccccc21 , result_ITMP value reported: 43.7

----------
result_ITMP values by entry
Tested on: Vero-E6
run.description: primary screen, phospholipidosis by LipidTOX staining; higher = more effect of the substance
condition.notes: 10 µM
Hit rate of the full screen: of about 5,400 compounds, about 190 (3.5%) showed an effect of 50% or more. This is one part of a sample in which strong results are shown more often than they occur.
# value in %; strip the unit string

GET /value?item= CCN(CC)CCCCNc1ncc2cc(-c3cc(OC)cc(OC)c3)c(NC(=O)NC(C)(C)C)nc2n1 &field=result_ITMP returns 90.1

GET /value?item= Cn1nnnc1SCC1=C(C(=O)[O-])N2C(=O)[C@@H](NC(=O)[C@H](O)c3ccccc3)[C@H]2SC1 &field=result_ITMP returns -1.4

GET /value?item= C#CC[C@H](c1nc2cc(Cl)ccc2c(=O)n1Nc1ccccc1)N(CCCN)C(=O)c1cccc(Cl)c1F &field=result_ITMP returns 68.4

GET /value?item= O=C([O-])c1ccccc1Nc1cc(Cl)ccc1C(=O)[O-] &field=result_ITMP returns -3.54

GET /value?item= CN(C)C(=O)C(CCN1CCC(O)(c2ccc(Cl)cc2)CC1)(c1ccccc1)c1ccccc1 &field=result_ITMP returns 67.2

GET /value?item= CCN(CC)CCCCNc1ncc2cc(-c3c(Cl)cccc3Cl)c(NC(=O)NC(C)(C)C)nc2n1 &field=result_ITMP returns 69.2

GET /value?item= C=C1C(=O)O[C@H]2[C@H]1CC/C(C)=C/CC[C@@]1(C)O[C@@H]21 &field=result_ITMP returns 16.6

GET /value?item= OC1(c2ccc(Cl)c(C(F)(F)F)c2)CCN(CCCC(c2ccc(F)cc2)c2ccc(F)cc2)CC1 &field=result_ITMP returns 36.2

----------
result_ITMP values by entry
Test system: Vero-E6
run.description: primary screen, phospholipidosis by LipidTOX staining; higher = more effect of the substance
condition.notes: 10 µM
Hit rate of the full screen: of about 5,400 compounds, about 190 (3.5%) showed an effect of 50% or more. Shown is part of a subset that was picked to be rich in strong results.
# value in %; strip the unit string

Use these answered entries as a reference point.
mol: CCN(CC)CCCCN1c2ccccc2Oc2ccc(Cl)cc21
result_ITMP (%): 69.7
--
mol: Cc1c[nH]c(=O)n(CCCN2CCN(c3ccccc3OCC(F)(F)F)CC2)c1=O
result_ITMP (%): -1.42
--
mol: C[C@H](CCC(=O)NCCS(=O)(=O)O)[C@H]1CC[C@H]2[C@@H]3[C@H](O)C[C@@H]4C[C@H](O)CC[C@]4(C)[C@H]3C[C@H](O)[C@]12C
result_ITMP (%): -2.23
--
mol: Cc1cc(-c2ccc(/N=N/c3ccc4c(S(=O)(=O)[O-])cc(S(=O)(=O)[O-])c(N)c4c3O)c(C)c2)ccc1/N=N/c1ccc2c(S(=O)(=O)[O-])cc(S(=O)(=O)[O-])c(N)c2c1O
result_ITMP (%): 10.1
--
mol: CCN(CC)C(=S)[S-]
result_ITMP (%): -6.15
--
mol: COc1ccccc1N1CCN(CCCCN2C(=O)c3ccccc3C2=O)CC1
result_ITMP (%): -0.85

GET /value?item= OCCN1CCN(CCCN2c3ccccc3C=Cc3ccccc32)CC1 &field=result_ITMP returns 50.3

GET /value?item= COc1cc(NC(=O)c2ccc(-c3ccc(Cl)cc3)o2)cc(OC)c1 &field=result_ITMP returns 2.29

GET /value?item= CC(C)(O)c1ccccc1CC[C@@H](SCC1(CC(=O)[O-])CC1)c1cccc(/C=C/c2ccc3ccc(Cl)cc3n2)c1 &field=result_ITMP returns 3.69
